Test system: Staphylococcus aureus 209P
Experiment: MIC by tube dilution method in brain heart infusion broth
Type: cell-based
Settings: Staphylococcus aureus, 209P, pH 7.5, read-out: Antimicrobial activity (MIC) Staphylococcus aureus 209P
Quantity: MIC (mg/L)

Solved cases below.
{"columns": ["Molecule", "MIC [mg/L]"],
 "data": [
  ["CCC1OC(=O)CC(O)C(C)C(OC2OC(C)C(OC3CC(C)(O)C(OC(=O)Cc4cccs4)C(C)O3)C(N(C)C)C2O)C(CC=O)CC(C)C(=O)C=CC(C)=CC1C (stereo not drawn)", 0.2],
  ["CCC1OC(=O)CC(O)C(C)C(OC2OC(C)C(OC3CC(C)(O)C(OC(=O)C4CCCCC4)C(C)O3)C(N(C)C)C2O)C(CC=O)CC(C)C(=O)/C=C/C(C)=C/C1C (stereo not drawn)", 0.8]
]}

1: CCC1OC(=O)CC(O)C(C)C(OC2OC(C)C(OC3CC(C)(O)C(OC(=O)C(OC(C)=O)c4ccccc4)C(C)O3)C(N(C)C)C2O)C(CC=O)CC(C)C(=O)/C=C/C(C)=C/C1C (stereo not drawn)
2: CCC1OC(=O)CC(OC(C)=O)C(C)C(OC2OC(C)C(OC3CC(C)(O)C(OC(=O)CC(C)C)C(C)O3)C(N(C)C)C2O)C(CC=O)CC(C)C(=O)C=CC(C)=CC1C (stereo not drawn) [R1=COCH3; R2=H; YR3=COCH2CH(CH3)2, 3-acetyl-4"-isovaleryl YT-3927]
Query string: Param metric = MIC; output whichever of 1 , 2 has the minimum value. Pick one; state its label.
Result string: 2
(2: 0.4 mg/L, 1: 0.8 mg/L)

A: CCC1OC(=O)CC(O)C(C)C(OC2OC(C)C(OC3CC(C)(OC(C)=O)C(OC(=O)CC(C)C)C(C)O3)C(N(C)C)C2O)C(CC=O)CC(C)C(=O)C=CC(C)=CC1C (stereo not drawn) [R1=H; R2=COCH3; YR3=COCH2CH(CH3)2]
B: CCC1OC(=O)CC(OC(C)=O)C(C)C(OC2OC(C)C(OC3CC(C)(OC(C)=O)C(OC(C)=O)C(C)O3)C(N(C)C)C2O)C(CC=O)CC(C)C(=O)C=CC(C)=CC1C (stereo not drawn) [R1=COCH3; R2=COCH3; YR3=COCH3, 3,3",4"-triacetyl YT-3927]
Query string: Quick check, higher MIC between A and B ? Pick one; state its label.
Result string: B

1: CCC1OC(=O)CC(O)C(C)C(OC2OC(C)C(OC3CC(C)(O)C(OC(=O)Nc4ccccc4)C(C)O3)C(N(C)C)C2O)C(CC=O)CC(C)C(=O)/C=C/C(C)=C/C1C (stereo not drawn)
2: CCC1OC(=O)CC(O)C(C)C(OC2OC(C)C(OC3CC(C)(OC(C)=O)C(OC(=O)Cc4cccnc4)C(C)O3)C(N(C)C)C2O)C(CC=O)CC(C)C(=O)C=CC(C)=CC1C (stereo not drawn)
Query string: Quick check, higher MIC between 1 and 2 ? Pick one; state its label.
Result string: 1
